# Test system: 349418-098-R-PDC complex spheroid growth
# method_description: Anticancer human tumor 349418-098-R-PDC patient-derived lung adenocarcinoma cell line growth inhibition [AhR]; active means viability on the fitted dose curve at most 10% of control; inactive means the rest
# condition_summary: second compound 1 µM; first compound 0.316 µM
Returns: one label drawn from Y (active), N (inactive)

CC(C)c1c(-c2ccccc2)nc2c(C#N)c[nH]n2c1=O + Cc1ccccc1N=Nc1ccc(NC(=O)c2ccnn2C)c(C)c1
N
O=C(c1cc(Cc2n[nH]c(=O)c3ccccc23)ccc1F)N1CCN(C(=O)C2CC2)CC1 + Cc1ccccc1N=Nc1ccc(NC(=O)c2ccnn2C)c(C)c1
N
CC1COCCN1c1cc(-c2ccnn2C)c2ccnc(-c3ccn[nH]3)c2n1 (stereo unspecified) + Cc1ccccc1N=Nc1ccc(NC(=O)c2ccnn2C)c(C)c1
N
O=C(c1cc(Cc2n[nH]c(=O)c3ccccc23)ccc1F)N1CCN(C(=O)C2CC2)CC1 + CC(CO)NC(=O)c1cc(-c2ccc(Cl)cc2)nn(-c2cnn(C)c2)c1=O
N
COc1ccc([C@@H](O)c2cc(-c3ncnc4cc(N5CCOCC5)ccc34)c(F)cc2Cl)nn1 + CC(CO)NC(=O)c1cc(-c2ccc(Cl)cc2)nn(-c2cnn(C)c2)c1=O
N
COc1cc(Nc2ncc3c(n2)-c2ccc(Cl)cc2C(c2c(F)cccc2OC)=NC3)ccc1C(=O)O + Cc1cncc(-c2nc(NCCc3c[nH]c4ccccc34)c3ncn(C(C)C)c3n2)c1
N

Q: Name the outcome recorded for CC1(C)CCC(CN2CCN(c3ccc(C(=O)NS(=O)(=O)c4ccc(NCC5CCOCC5)c([N+](=O)[O-])c4)c(Oc4cnc5[nH]ccc5c4)c3)CC2)=C(c2ccc(Cl)cc2)C1 + CC(CO)NC(=O)c1cc(-c2ccc(Cl)cc2)nn(-c2cnn(C)c2)c1=O in the assay.
A: N

Q: Which result was noted for this compound in the test: COc1cccc2c1C(=O)c1c(O)c3c(c(O)c1C2=O)CC(O)(C(=O)CO)CC3OC1CC(N)C(O)C(C)O1 (stereo unspecified) + Cc1cncc(-c2nc(NCCc3c[nH]c4ccccc34)c3ncn(C(C)C)c3n2)c1
A: Y

Q: Look up the recorded call for CC1(C)CCC(CN2CCN(c3ccc(C(=O)NS(=O)(=O)c4ccc(NCC5CCOCC5)c([N+](=O)[O-])c4)c(Oc4cnc5[nH]ccc5c4)c3)CC2)=C(c2ccc(Cl)cc2)C1 + Cc1cncc(-c2nc(NCCc3c[nH]c4ccccc34)c3ncn(C(C)C)c3n2)c1 in this test.
A: N

Q: Each compound tested received a call. Report the one for O=C(c1cc(Cc2n[nH]c(=O)c3ccccc23)ccc1F)N1CCN(C(=O)C2CC2)CC1 + Cc1cncc(-c2nc(NCCc3c[nH]c4ccccc34)c3ncn(C(C)C)c3n2)c1 .
A: N

Q: Per the assay record, what outcome was assigned to COc1cccc2c1C(=O)c1c(O)c3c(c(O)c1C2=O)CC(O)(C(=O)CO)CC3OC1CC(N)C(O)C(C)O1 (stereo unspecified) + Cc1ccccc1N=Nc1ccc(NC(=O)c2ccnn2C)c(C)c1 ?
A: Y

###

# Tested on: 349418-098-R-PDC complex spheroid growth
# method_description: Anticancer human tumor 349418-098-R-PDC cell line growth inhibition [AhR];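 further: spheroids also contain HUVEC endothelial cells and human MSC stroma; spheroids exposed to agents for seven days before luminescence viability read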
# condition_summary: second compound 0.316 µM; first compound 0.000316 µM; active compounds read low
Task for the reader: assign each of the following compounds its reported viability, T/C.
Numbers only, in %.

Solved cases below.
CC[C@@]1(O)C(=O)OCc2c1cc1n(c2=O)Cc2cc3c(CN(C)C)c(O)ccc3nc2-1 + Cc1cncc(-c2nc(NCCc3c[nH]c4ccccc34)c3ncn(C(C)C)c3n2)c1
87.3
Cn1ncnc1C1c2n[nH]c(=O)c3cc(F)cc(c23)NC1c1ccc(F)cc1 (stereo unspecified) + Cc1ccccc1N=Nc1ccc(NC(=O)c2ccnn2C)c(C)c1
110
CC[C@@]1(O)C(=O)OCc2c1cc1n(c2=O)Cc2cc3c(CN(C)C)c(O)ccc3nc2-1 + CC(CO)NC(=O)c1cc(-c2ccc(Cl)cc2)nn(-c2cnn(C)c2)c1=O
136
Cn1ncnc1C1c2n[nH]c(=O)c3cc(F)cc(c23)NC1c1ccc(F)cc1 (stereo unspecified) + CC(CO)NC(=O)c1cc(-c2ccc(Cl)cc2)nn(-c2cnn(C)c2)c1=O
71.8
CC[C@@]1(O)C(=O)OCc2c1cc1n(c2=O)Cc2cc3c(CN(C)C)c(O)ccc3nc2-1 + Cc1ccccc1N=Nc1ccc(NC(=O)c2ccnn2C)c(C)c1
95

Shifting focus to the compound that follows.
Q: Give its viability, T/C value. Item: Cn1ncnc1C1c2n[nH]c(=O)c3cc(F)cc(c23)NC1c1ccc(F)cc1 (stereo unspecified) + Cc1cncc(-c2nc(NCCc3c[nH]c4ccccc34)c3ncn(C(C)C)c3n2)c1
A: 90.1

Data credit: PubChem BioAssay AID1918996
